Overview of recorded pIC50 for various molecules
Molecular target: recombinant human GALK1 (Homo sapiens, UniProt P51570)
Sequence (P51570 whole entry): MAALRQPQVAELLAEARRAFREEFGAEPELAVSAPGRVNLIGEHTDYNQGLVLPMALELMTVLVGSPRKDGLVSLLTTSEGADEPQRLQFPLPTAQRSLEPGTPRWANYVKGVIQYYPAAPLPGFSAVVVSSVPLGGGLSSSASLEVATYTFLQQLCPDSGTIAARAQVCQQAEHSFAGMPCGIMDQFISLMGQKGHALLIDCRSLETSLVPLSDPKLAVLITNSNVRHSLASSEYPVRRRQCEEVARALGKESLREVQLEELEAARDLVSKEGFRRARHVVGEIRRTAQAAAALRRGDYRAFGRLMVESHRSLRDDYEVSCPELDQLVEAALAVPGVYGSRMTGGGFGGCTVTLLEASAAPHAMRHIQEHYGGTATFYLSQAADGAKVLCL
Assay: hGALK1 biochemical activity assay (Kinase-Glo Plus, ATP depletion)
Conditions: Tables 2-15; 35 μM ATP, 100 μM galactose, 1 h; bracketed figure after some values (e.g. −1.2) is undefined and not reported; read-out: hGALK IC50
pIC50: −log10 of the molar value.

{"molecule": "COC(=O)Cc1nnc(NC(=O)C2=C(C)NC(Nc3nc4ccccc4o3)=NC2c2ccccc2Cl)s1 (centres unmarked)", "pIC50": 5.21}
{"molecule": "CC1=C(C(=O)Nc2ccc(C#N)cc2)C(c2ccccc2Cl)N=C(Nc2nc3ccccc3o2)N1 (centres unmarked)", "pIC50": 4.96}
{"molecule": "CC1=C(C(=O)Nc2cc(C(=O)O)ccn2)C(c2cc(C(=O)O)ccc2Cl)N=C(Nc2nc3ccc(F)cc3o2)N1 (centres unmarked)", "pIC50": 5.76}
{"molecule": "CC1=C(C(=O)NCc2nc3ccccc3n2C)C(c2ccccc2Cl)N=C(Nc2nc3ccccc3o2)N1 (centres unmarked)", "pIC50": 5.06}
{"molecule": "COC(=O)c1ccc(CNC(=O)C2=C(C)NC(Nc3nc4ccccc4o3)=NC2c2ccccc2Cl)cc1 (centres unmarked)", "pIC50": 5.36}

###

Known IC50 of a selection of compounds
Biological target: recombinant human GALK1 (Homo sapiens, UniProt P51570)
Assay: hGALK1 biochemical activity assay (Kinase-Glo Plus, ATP depletion)
Conditions: Tables 2-15; 35 μM ATP, 100 μM galactose, 1 h; bracketed figure after some values (e.g. −1.2) is undefined and not reported; read-out: hGALK IC50
observed-property: IC50 (µM)

{"compound": "CC1=C(C(=O)NCc2cn(C)cn2)[C@H](c2ccccc2Cl)N=C(Nc2nc3ccccc3o2)N1", "unit-info": "µM", "meas-value": 3.06}
{"compound": "CC1=C(C(=O)NCc2ccc(F)cc2)C(c2ccccc2Cl)N=C(Nc2nc3ccccc3o2)N1 (stereo not shown)", "unit-info": "µM", "meas-value": 7.69}
{"compound": "CC1=C(C(=O)Nc2cc(C(=O)O)ccn2)[C@@H](c2ccccc2Cl)N=C(Nc2nc3ccccc3o2)N1", "unit-info": "µM", "meas-value": 12.2}
{"compound": "CC1=C(C(=O)Nc2ncc(CO)s2)C(c2ccccc2Cl)N=C(Nc2nc3ccccc3o2)N1 (stereo not shown)", "unit-info": "µM", "meas-value": 12.2}
{"compound": "CC1=C(C(=O)Nc2cc(CO)ccn2)C(c2ccccc2Cl)N=C(Nc2nc3ccc(F)cc3o2)N1 (stereo not shown)", "unit-info": "µM", "meas-value": 3.06}
{"compound": "CC1=C(C(=O)Nc2nc(C(=O)O)cs2)C(c2ccccc2Cl)N=C(Nc2nc3ccccc3o2)N1 (stereo not shown)", "unit-info": "µM", "meas-value": 9.68}
{"compound": "CC1=C(C(=O)Nc2ccc(-n3cccn3)cc2)C(c2ccccc2Cl)N=C(Nc2nc3ccccc3o2)N1 (stereo not shown)", "unit-info": "µM", "meas-value": 6.11}

###

Biological target: recombinant human GALK1 (Homo sapiens, UniProt P51570)
Test: hGALK1 biochemical activity assay (Kinase-Glo Plus, ATP depletion)
Details: Tables 2-15; 35 μM ATP, 100 μM galactose, 1 h; bracketed figure after some values (e.g. −1.2) is undefined and not reported; read-out: hGALK IC50
Some compounds, each annotated with its measured log10(IC50).
observed-property: log10(IC50) (log10 of the value in µM)

{"compound": "CC1=C(C(=O)NCc2cnn(Cc3ccccc3)c2)C(c2ccc(C)cc2Cl)N=C(Nc2nc3ccc(F)cc3o2)N1 (stereo not shown)", "log10(IC50)": 0.24}
{"compound": "CC1=C(C(=O)Nc2cccc(C(N)=O)c2)C(c2ccccc2Cl)N=C(Nc2nc3ccccc3o2)N1 (stereo not shown)", "log10(IC50)": 0.89}
{"compound": "COC(=O)c1cccc(NC(=O)C2=C(C)NC(Nc3nc4ccccc4o3)=NC2c2ccccc2Cl)n1 (stereo not shown)", "log10(IC50)": 0.99}
{"compound": "CC1=C(C(=O)Nc2cc(C(=O)O)ccn2)C(c2cccc(S(N)(=O)=O)c2)N=C(Nc2nc3ccc(F)cc3o2)N1 (stereo not shown)", "log10(IC50)": 1.24}
{"compound": "CC1=C(C(=O)Nc2cc(C(=O)O)ccn2)[C@@H](c2ccc(C)cc2Cl)N=C(Nc2nc3ccc(F)cc3o2)N1", "log10(IC50)": 0.29}
{"compound": "CC1=C(C(=O)Nc2cc(C(=O)O)ccn2)C(c2ccc(C)cc2Cl)N=C(Nc2nc3c(o2)CCCC3)N1 (stereo not shown)", "log10(IC50)": 0.49}
{"compound": "COc1ccc([C@@H]2N=C(Nc3nc4cccc(N)c4o3)NC(C)=C2C(=O)Nc2cc(C(=O)O)ccn2)c(Cl)c1", "log10(IC50)": -0.82}

// data source = patent US20230158025A1
